Target: T1, GDF-11 (UniProt O95390 299-407)
T1 construct: also called Growth and Differentiation Factor-11; BMP11
T1 sequence (looked up): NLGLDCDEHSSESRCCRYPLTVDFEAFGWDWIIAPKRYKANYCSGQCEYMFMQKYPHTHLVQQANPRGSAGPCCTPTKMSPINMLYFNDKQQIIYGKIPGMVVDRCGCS
Experiment: BiaCore, ligand immobilized on CM5 chip
assay_endpoint: binding result

>>> observed_measurement("ActRIIB-Fc D80G (Fc fusion, Mutation in the background ActRIIB-Fc) SGRGEAETRECIYYNANWELERTNQSGLERCEGEQDKRLHCYASWANSSGTIELVKKGCWLGDFNCYDRQECVATEENPQVYFCCCEGNFCNERFTHLPEAGGGTHTCPPCPAPELLGGPSVFLFPPKPKDTLMISRTPEVTCVVVDVSHEDPEVKFNWYVDGVEVHNAKTKPREEQYNSTYRVVSVLTVLHQDWLNGKEYKCKVSNKALPVPIEKTISKAKGQPREPQVYTLPPSREEMTKNQVSLTCLVKGFYPSDIAVEWESNGQPENNYKTTPPVLDSDGSFFLYSKLTVDKSRWQQGNVFSCSVMHEALHNHYTQKSLSLSPGK")
"no binding"
>>> observed_measurement("ActRIIB-Fc D80K (Fc fusion, Mutation in the background ActRIIB-Fc) SGRGEAETRECIYYNANWELERTNQSGLERCEGEQDKRLHCYASWANSSGTIELVKKGCWLKDFNCYDRQECVATEENPQVYFCCCEGNFCNERFTHLPEAGGGTHTCPPCPAPELLGGPSVFLFPPKPKDTLMISRTPEVTCVVVDVSHEDPEVKFNWYVDGVEVHNAKTKPREEQYNSTYRVVSVLTVLHQDWLNGKEYKCKVSNKALPVPIEKTISKAKGQPREPQVYTLPPSREEMTKNQVSLTCLVKGFYPSDIAVEWESNGQPENNYKTTPPVLDSDGSFFLYSKLTVDKSRWQQGNVFSCSVMHEALHNHYTQKSLSLSPGK")
"no binding"
>>> observed_measurement("ActRIIB-Fc D80A (Fc fusion, Mutation in the background ActRIIB-Fc) SGRGEAETRECIYYNANWELERTNQSGLERCEGEQDKRLHCYASWANSSGTIELVKKGCWLADFNCYDRQECVATEENPQVYFCCCEGNFCNERFTHLPEAGGGTHTCPPCPAPELLGGPSVFLFPPKPKDTLMISRTPEVTCVVVDVSHEDPEVKFNWYVDGVEVHNAKTKPREEQYNSTYRVVSVLTVLHQDWLNGKEYKCKVSNKALPVPIEKTISKAKGQPREPQVYTLPPSREEMTKNQVSLTCLVKGFYPSDIAVEWESNGQPENNYKTTPPVLDSDGSFFLYSKLTVDKSRWQQGNVFSCSVMHEALHNHYTQKSLSLSPGK")
"no binding"
